Provenance of the data: the supplement of paper PMC9112550

System: Escherichia coli TOP10;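 note: peptides expressed intracellularly from a pBAD plasmid library in pooled LB shake-flask culture, induced with 0.3% L-arabinose, DNA abundance read by NGS, three biological replicates, DESeq2 with apeglm shrinkage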
ASSAY NAME: shrunken log2 fold change of peptide-encoding DNA abundance (4.5 h post-induction vs induction); higher = less antimicrobial activity (less host growth inhibition)
EXPERIMENTAL PARAMETERS: time post-induction: 4.5 h; library: site-saturation at positions 5, 18, 19, 20
// map shrunken log2 fold change to label using low: < -0.06; intermediate: ≥ -0.06 and < 0.05; high: ≥ 0.05

Example entries and their recorded answers appear below.
CONSTRUCT SEQUENCE	CLASS NAME
RRIRLRPPRLPRPRPRPMGSPRP	intermediate
RRIRYRPPRLPRPRPRPAHVPRP	low
RRIRCRPPRLPRPRPRPWPIPRP	low
RRIRQRPPRLPRPRPRPNDTPRP	low

Exercise: # classify by shrunken log2 fold change band: RRIRGRPPRLPRPRPRPKQPPRP
Solution: high

Exercise: # classify by shrunken log2 fold change band: RRIRNRPPRLPRPRPRPRMFPRP
Solution: low

Exercise: # classify by shrunken log2 fold change band: RRIRIRPPRLPRPRPRPTLMPRP
Solution: intermediate

Exercise: # classify by shrunken log2 fold change band: RRIRSRPPRLPRPRPRPPAHPRP
Solution: high

Exercise: # classify by shrunken log2 fold change band: RRIRDRPPRLPRPRPRPSLCPRP
Solution: intermediate

Exercise: # classify by shrunken log2 fold change band: RRIRNRPPRLPRPRPRPPWKPRP
Solution: low
